# Tested on: HCT-15 colon
# assaySummary: NCI tumour cell line growth inhibition, 48 h
measurementLabel: GI50

Solved entries:
### Prompt Reported GI50, compound CC(=O)n1c(-c2ccc(Cl)cc2)nc2c(c1=O)C(c1ccc(Cl)cc1)c1sc3c(Cl)cccc3c1O2 (stereo not given) : ____
### Response 418 nM

### Prompt // lookup GI50 for Nc1nc(Nc2ccc(OCc3cccc(F)c3)cc2)c2c(n1)[nH]c1ccc(O)cc12
### Response 3610 nM

### Prompt # get_value(readout='GI50', item= CN1CCN(Cc2ccc(NC(=O)c3ccc(C(C)(C)C)c(C#Cc4cnc5cccnn45)c3)cc2C(F)(F)F)CC1 )
### Response 1210 nM

### Prompt Entry under review: CNC(=O)c1cn(C[C@H](F)CCc2ccc(NC(=O)Cc3cc(OC4CC(F)(F)C4)cc(C)n3)nn2)nn1 . Reported GI50?
### Response > 100000 nM

Further cases:
### Prompt Which GI50 value belongs to CS(=O)(=O)Nc1ccc(-c2ccc3c(NC(=O)C4CC4)n[nH]c3c2)cc1 ?
### Response > 25000 nM

Origin of values: PubChem BioAssay (NCI)
